Data credit: ChEMBL document CHEMBL1159109

Provide the recorded inhibition for the entries that follow.
Tested on: Mycobacterium
Test: Inhibition of Mycobacterium membrane bound ATP synthase
Set-up: concentration or dose not given beside the values
Details: concentration not given here
// note: answer is a bare numeric in %

The compound COc1ccc(/C=N/NC(=O)c2cnc3c(C(F)(F)F)cccc3c2N[C@@H](CSc2ccccc2)CC(=O)N(C)C)cc1O showed inhibition equal to 90

The compound CSc1ccccc1/C=N/NC(=O)c1cnc2ccc(F)cc2c1N[C@@H](CSc1ccccc1)CC(=O)N(C)C showed inhibition equal to 0

The compound COc1ccc(/C=N/NC(=O)c2cnc3c(C(F)(F)F)cccc3c2N[C@@H](CSc2ccccc2)CC(=O)N(C)C)c(F)c1 showed inhibition equal to 90

The compound CSCC/C=N/NC(=O)c1cnc2ccc(F)cc2c1N[C@@H](CSc1ccccc1)CC(=O)N(C)C showed inhibition equal to 0

The compound CN(C)C(=O)C[C@H](CSc1ccccc1)Nc1c(C(=O)N/N=C/c2ccc(Br)s2)cnc2c(C(F)(F)F)cccc12 showed inhibition equal to 90

The compound CN(C)C(=O)C[C@H](CSc1ccccc1)Nc1c(C(=O)N/N=C/c2cc(F)ccc2O)cnc2c(C(F)(F)F)cccc12 showed inhibition equal to 0

The compound CSc1ccccc1/C=N/NC(=O)c1cnc2c(C(F)(F)F)cccc2c1N[C@@H](CSc1ccccc1)CC(=O)N(C)C showed inhibition equal to 0

The compound COc1ccc(/C=N/NC(=O)c2cnc3ccc(F)cc3c2N[C@@H](CSc2ccccc2)CC(=O)N(C)C)c(F)c1 showed inhibition equal to 0

The compound CN(C)C(=O)C[C@H](CSc1ccccc1)Nc1c(C(=O)N/N=C/c2ccc(Br)s2)cnc2ccc(F)cc12 showed inhibition equal to 0

The compound COc1ccc(/C=N/NC(=O)c2cnc3ccc(F)cc3c2N[C@@H](CSc2ccccc2)CC(=O)N(C)C)cc1O showed inhibition equal to 90

The compound CN(C)C(=O)C[C@H](CSc1ccccc1)Nc1c(C(=O)N/N=C/c2ccccc2F)cnc2c(C(F)(F)F)cccc12 showed inhibition equal to 90

The compound CSCC/C=N/NC(=O)c1cnc2c(C(F)(F)F)cccc2c1N[C@@H](CSc1ccccc1)CC(=O)N(C)C showed inhibition equal to 90
